Experiment: Dose range study, pharmacokinetics: plasma concentrations (Example 5)
Type: in vivo, human
Conditions: human, plasma, topical; Day 1, one subject, one time point (2 hours post-dosing); read-out: plasma concentration of Compound of Formula (Ia)
reported_metric: concentration at 2 h (ng/mL)
One number for each entry, in ng/mL.

-- ask Note concentration at 2 h for the molecule shown: CCCCCCCCCCCCCCOc1ccc(C(=O)OCC(=O)N(C)CC(=O)OCC)o1
-- reply 0.304
